Test system: KHOS-NP
Assay: relative viability vs DMSO control (72 h) (fraction); higher = more viable cells
Settings: 0.00017 µM
Reported relative viability values are given for each entry in this list.
quantity_kind: relative viability

compound="COC(=O)N[C@@H](C)CNc1nccc(-c2cn(C(C)C)nc2-c2cc(Cl)cc(NS(C)(=O)=O)c2F)n1 [Encorafenib]" recorded_value=1.01
compound="O=C(Nc1ccc(OC(F)(F)Cl)cc1)c1cnc(N2CC[C@@H](O)C2)c(-c2cc[nH]n2)c1 [Asciminib]" recorded_value=1.04
compound="Cc1cc2c(F)c(Oc3ncnn4cc(OC[C@@H](C)O)c(C)c34)ccc2[nH]1 [Brivanib]" recorded_value=1.04
compound="COc1cc(OC)c(/C=C/S(=O)(=O)Cc2ccc(OC)c(NCC(=O)O)c2)c(OC)c1 [Rigosertib]" recorded_value=1.09
compound="COCCNc1cc(NC(=O)N2CCCc3cc(CN4CCN(C)CC4=O)c(C=O)nc32)ncc1C#N [Roblitinib]" recorded_value=1.05
compound="Cn1cc(C2=C(c3cn(C4CCN(Cc5ccccn5)CC4)c4ccccc34)C(=O)NC2=O)c2ccccc21 [Enzastaurin]" recorded_value=1.12
compound="CC#CC(=O)N1CCC[C@H]1c1nc(-c2ccc(C(=O)Nc3ccccn3)cc2)c2c(N)nccn12 [Acalabrutinib]" recorded_value=1.03
compound="CCN(CC)CCNC(=O)c1c(C)[nH]c(/C=C2\\C(=O)Nc3ccc(F)cc32)c1C [Sunitinib]" recorded_value=1.04
compound="CNC(=O)c1ccccc1Sc1ccc2c(/C=C/c3ccccn3)n[nH]c2c1 [Axitinib]" recorded_value=1.08
compound="CCC(=O)N1CC[C@H](Nc2ncnc3c2CN(c2cnc(OC)c(C(F)(F)F)c2)CC3)C1 [Leniolisib]" recorded_value=1.11
